assay: Mouse pharmacokinetic experiment, oral gavage; format: in vivo; details: male, mouse, ICR mice, 5 mg/kg, plasma, read-out: Tmax
Measurement type: Tmax
Write your answer as a measured quantity: the number, then the unit.

Query: Bench note: what Tmax did CNC[C@@H]1OCC2(CC2)c2sccc21 show?
Reply: 30 min

====

target: TAAR1 receptor (Homo sapiens, UniProt Q96RJ0); test: TAAR1 receptor cAMP agonist test; conditions: cAMP agonist assay, cell line stably expressing TAAR1 receptor
Sequence (Q96RJ0 whole entry): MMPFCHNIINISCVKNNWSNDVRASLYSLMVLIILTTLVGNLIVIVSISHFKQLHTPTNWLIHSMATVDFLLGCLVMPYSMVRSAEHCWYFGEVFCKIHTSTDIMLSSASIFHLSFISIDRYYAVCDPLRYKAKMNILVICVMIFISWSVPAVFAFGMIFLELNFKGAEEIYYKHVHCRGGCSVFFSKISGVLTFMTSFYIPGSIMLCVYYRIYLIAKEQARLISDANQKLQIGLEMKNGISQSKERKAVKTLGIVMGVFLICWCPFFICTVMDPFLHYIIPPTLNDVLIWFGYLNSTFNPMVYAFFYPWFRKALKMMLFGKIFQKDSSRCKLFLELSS
Measurement type: pEC50
Keep it numeric: pEC50 is minus log10 of the concentration in mol/L.

Query: Bench note: what pEC50 did CNC[C@@H]1OCC2(CC2)c2sccc21 (single isomer, unassigned) show?
Reply: 5.81

====

experiment: Equilibrium solubility in water for 24 hours; format: physicochemical; conditions: deionized water, 37 °C, water, thermodynamic from solid
Measurement type: solubility at 24 h (mg/mL)
Number in mg/mL, nothing else.

Query: Bench note: what solubility at 24 h did CNC[C@@H]1OCC2(CC2)c2sccc21 show?
Reply: 155
